Source listed as patent US10975056B2.

Tested on: erythroid progenitor cells (EPCs)
Assay Remarks: Fetal hemoglobin (HbF) ELISA in day 7 erythroid progenitor cells;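 note: for fetal hemoglobin induction normalized to vehicle-treated cells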
Format: cell-based, human
Measurement Setup: Homo sapiens, Erythroid progenitor cell, HbF ELISA, day 7 EPCs, 5 days; read-out: EPC ELISA (pEC50 category) (converted)
Structures can show the parent of a compound that is named as a salt.
Record form. Attribute: EC50. Fill in for each entry.

Please look at this molecule and report its EC50: CCc1c(C#N)c(SC(C(N)=O)c2ccccc2)nc(N2CCC(N3CCC[C@@H]3C)CC2)c1C#N (stereo partly drawn)
< 316 nM

Please look at this molecule and report its EC50: CCc1c(C#N)c(SC(C(N)=O)c2ccccc2)nc(N(C)CC(=O)NCCCO)c1C#N (stereo not drawn)
316 to 1000 nM

Please look at this molecule and report its EC50: CCc1c(C#N)c(SC(C(N)=O)c2ccccc2)nc(N2CCC(NCc3ccc(OC)nc3)CC2)c1C#N (stereo not drawn)
< 316 nM

Please look at this molecule and report its EC50: CCc1c(C#N)c(SC(C(N)=O)c2cccc(C(=O)c3ccccc3)c2)nc(N2CCCN(CCO)CC2)c1C#N (stereo not drawn)
< 316 nM

Please look at this molecule and report its EC50: CCc1c(C#N)c(SC(C(N)=O)c2ccc(C(F)(F)F)cc2)nc(N2CCCN(C)CC2)c1C#N (stereo not drawn)
< 316 nM

Please look at this molecule and report its EC50: CCc1c(C#N)c(SC(C(N)=O)c2ccccc2)nc(N2CC(OC(=O)C(N)C(C)C)C2)c1C#N (stereo in doubt)
1000 to 31600 nM

Please look at this molecule and report its EC50: CCc1c(C#N)c(SC(C(N)=O)c2ccccc2)nc(N2CCNCC(F)C2)c1C#N (stereo not drawn)
1000 to 31600 nM

Please look at this molecule and report its EC50: CCc1c(C#N)c(SC(C(N)=O)c2ccccc2)nc(N(C)CC(=O)N2C[C@H](O)C[C@H](O)C2)c1C#N (stereo partly drawn)
< 316 nM

Please look at this molecule and report its EC50: CCc1c(C#N)c(SCc2ccc(S(N)(=O)=O)cc2)nc(N2CCC(NC(=O)CN)CC2)c1C#N [Example 339, hydrochloride]
1000 to 31600 nM

Please look at this molecule and report its EC50: `CCc1c(C#N)c(SCc2ccc(-c3ccccn3)cc2)nc(N2CCC(N3CCCC3)CC2)c1C#N`
> 31600 nM

Please look at this molecule and report its EC50: CCc1c(C#N)c(SCc2ccc(CNC(=O)CN)cc2)nc(N2CC[C@@H](N)[C@@H](F)C2)c1C#N (relative stereo)
< 316 nM

Please look at this molecule and report its EC50: CC1(N)CCN(c2nc(SC(C(N)=O)c3ccccc3)c(C#N)c(C3CC3)c2C#N)CC1 (stereo not drawn)
< 316 nM

Please look at this molecule and report its EC50: CCc1c(C#N)c(SCc2ccc(N(C)S(C)(=O)=O)cc2)nc(N2CCOC(CN(CC)CC)C2)c1C#N (stereo not drawn)
< 316 nM

Please look at this molecule and report its EC50: CCc1c(C#N)c(SC(C(N)=O)c2ccccc2)nc(N2CC[C@@H](OP(=O)(O)O)C2)c1C#N (stereo partly drawn)
1000 to 31600 nM

Please look at this molecule and report its EC50: `CCC(=O)NCc1ccc(CSc2nc(N3CCCN(C)CC3)c(C#N)c(CC)c2C#N)cc1`
316 to 1000 nM

Please look at this molecule and report its EC50: CCc1c(C#N)c(SC(C(N)=O)c2ccccc2)nc(N(C)CCOCCN)c1C#N (stereo not drawn)
< 316 nM

Please look at this molecule and report its EC50: CCc1nc(SC(C(N)=O)c2ccccc2)c(C#N)c(CC)c1C#N (stereo not drawn)
> 31600 nM

Please look at this molecule and report its EC50: CCc1c(C#N)c(S[C@H](C(N)=O)c2ccccc2)nc(N2CC(N)C2)c1C#N (stereo in doubt)
316 to 1000 nM

Please look at this molecule and report its EC50: CCc1c(C#N)c(SC(C(N)=O)c2ccccc2)nc(N2CC3NCCOC3C2)c1C#N (stereo not drawn)
1000 to 31600 nM

Please look at this molecule and report its EC50: CCc1c(C#N)c(SC(C(N)=O)c2ccccc2)nc(N2CCO[C@H](CN(CC)CC)C2)c1C#N (stereo partly drawn)
< 316 nM

Please look at this molecule and report its EC50: CCN1CCCN(c2nc(SC(C(N)=O)c3ccccc3)c(C#N)c(C3CC3)c2C#N)CC1 (stereo not drawn)
< 316 nM

Please look at this molecule and report its EC50: CCc1c(C#N)c(SC(C(N)=O)c2ccccc2)nc(N2CCN(C(=O)C3(N)CCOCC3)CC2)c1C#N (stereo not drawn) [Example 141, Trifluoroacetic Acid Salt]
< 316 nM

Please look at this molecule and report its EC50: CCc1c(C#N)c(SC(C(N)=O)c2ccccc2)nc(N2CCC(C)(N)CC2)c1C#N (stereo not drawn)
< 316 nM

Please look at this molecule and report its EC50: CCc1c(C#N)c(SCc2ccc(N(C)S(C)(=O)=O)cc2)nc(N2CCOC(CN3CCCC3)C2)c1C#N (stereo not drawn)
< 316 nM

Please look at this molecule and report its EC50: CCc1c(C#N)c(SC(C(N)=O)c2ccccc2)nc(N(C)CC(=O)N2CCNCC2)c1C#N (stereo not drawn)
< 316 nM

Please look at this molecule and report its EC50: CCc1c(C#N)c(SC(C(N)=O)c2ccccc2)nc(N2CCCC(CN(C)C)C2)c1C#N (stereo not drawn)
< 316 nM

Please look at this molecule and report its EC50: `CNc1c(C#N)c(SCc2ccc(CNC(C)=O)cc2)nc(N2CCCN(C)CC2)c1C#N`
1000 to 31600 nM

Please look at this molecule and report its EC50: CCc1c(C#N)c(SC(C(N)=O)c2ccccc2)nc(N2CCC(N3CCC[C@H]3CO)CC2)c1C#N (stereo partly drawn)
< 316 nM

Please look at this molecule and report its EC50: CCc1c(C#N)c(SC(C(N)=O)c2ccccc2)nc(N2CCCN(CC(C)O)CC2)c1C#N (stereo not drawn)
< 316 nM

Please look at this molecule and report its EC50: CCc1c(C#N)c(SC(C(N)=O)c2ccccc2)nc(N2CCO[C@H](CN)C2)c1C#N (stereo partly drawn)
< 316 nM
